biological target: T1, hD54-ins2 bait (GAL4 DNA-binding domain fusion, pAS2-1hD54-ins2) (human, UniProt P04386 1-147 (Saccharomyces cerevisiae entry)); assay: yeast two-hybrid, Y190 co-transfectants, HIS3/lacZ reporters; interactor (GAL4-AD fusion) against bait (GAL4-DB fusion)
T1 construct: Fusion expressed in yeast

{"columns": ["Binder", "binding result"],
 "data": [
  ["hD52 interactor (GAL4 activation domain fusion, pAD-GAL4hD52) (other, range 761-881; also called hD52^c) PSALFGGANFNQSGNIADSSLSFTFTNSSNGPNLITTQTNSQALSQPIASSNVHDNFMNNEITASKIDDGNNSKPLSPGWTDQTAYNAFGITTGMFNTTTMDDVYNYLFDDEDTPPNPKKEMDRGEQGLLRTDPVPEEGEDVAATISATETLSEEEQEELRRELAKVEEEIQTLSQVLAAKEKHLAEIKRKLGINSLQELKQNIAKGWQDVTATSAYKKTSETLSQAGQKASAAFSSVGSVITKKLEDVKNSPTFKSFEEKVENLKSKVGGTKPAGGDFGEVLNSAANASATTTEPLPEKTQESL", "binds"],
  ["mD52(1-163) interactor (GAL4 activation domain fusion, pACT2mD52(1-163)) (other, range 768-881) ANFNQSGNIADSSLSFTFTNSSNGPNLITTQTNSQALSQPIASSNVHDNFMNNEITASKIDDGNNSKPLSPGWTDQTAYNAFGITTGMFNTTTMDDVYNYLFDDEDTPPNPKKEMDRGEQGLLKTEPVAEEGEDAVTMLSAPEALTEEEQEELRRELTKVEEEIQTLSQVLAAKEKHLAELKRKLGISSLQEFKQNIAKGWQDVTATNAYKKTSETLSQAGQKASAAFSSVGSVITKKLEDVKNSPTFKSFEEKVENLKSKVGGAKPAGGDFGEVLN", "binds"]
]}
